Tested on: Enterococcus sp.
Experiment: in vitro antibacterial evaluation, MIC by broth dilution
Format: cell-based
Details: broth dilution, inoculum 5×10^5 CFU/mL, 18 hours at 35° C.; strain GC 4553
recorded_endpoint: MIC Enterococcus faecalis (GC 4553)

Answered cases to consult:
CC(C)=CCCC(C)=CCCC(C)=CCOc1cccc(C2OCC3OC(OC4C(CO)OC(Oc5ccc(CC6NC(=O)C(C(C)c7ccccc7)NC(=O)CNC(=O)C(CO)NC(=O)C(C(O)C7CNC(=N)N7C7OC(CO)C(O)C(O)C7O)NC(=O)C(C(O)C7CNC(=N)N7)NC6=O)cc5)C(O)C4O)C(O)C(O)C3O2)c1 (centres unmarked) [Example 185] :: 32 µg/mL
CC(c1ccccc1)C1NC(=O)CNC(=O)C(CO)NC(=O)C(C(O)C2CNC(=N)N2C2OC(CO)C(O)C(O)C2O)NC(=O)C(C(O)C2CNC(=N)N2)NC(=O)C(Cc2ccc(OC3OC(CO)C(OC4OC(COCc5ccc(OCc6ccccc6)cc5)C(O)C(O)C4O)C(O)C3O)cc2)NC1=O (centres unmarked) [Example 231] :: 4 µg/mL

Quick batch: MIC Enterococcus faecalis (GC 4553) for everything below.
1. COc1ccc2cc(COC3C(OC4C(CO)OC(Oc5ccc(CC6NC(=O)C(C(C)c7ccccc7)NC(=O)CNC(=O)C(CO)NC(=O)C(C(O)C7CNC(=N)N7C7OC(CO)C(O)C(O)C7O)NC(=O)C(C(O)C7CNC(=N)N7)NC6=O)cc5)C(O)C4O)OC(CO)C(O)C3O)ccc2c1 (centres unmarked) [Example 230c]
2. CC(c1ccccc1)C1NC(=O)CNC(=O)C(CO)NC(=O)C(C(O)C2CNC(=N)N2C2OC(CO)C(O)C(O)C2O)NC(=O)C(C(O)C2CNC(=N)N2)NC(=O)C(Cc2ccc(OC3OC(CO)C(OC4OC5COC(c6cccc(Oc7cccc(C(F)(F)F)c7)c6)OC5C(O)C4O)C(O)C3O)cc2)NC1=O (centres unmarked) [Example 184]

Response:
128 µg/mL
16 µg/mL

Quick batch: MIC Enterococcus faecalis (GC 4553) for everything below.
1. CC(c1ccccc1)C1NC(=O)CNC(=O)C(CO)NC(=O)C(C(O)C2CNC(=N)N2C2OC(CO)C(O)C(O)C2O)NC(=O)C(C(O)C2CNC(=N)N2)NC(=O)C(Cc2ccc(OC3OC(CO)C(OC4OC5COC6(CCSCC6)OC5C(O)C4O)C(O)C3O)cc2)NC1=O (centres unmarked) [Example 217]
2. CC(c1ccccc1)C1NC(=O)CNC(=O)C(CO)NC(=O)C(C(O)C2CNC(=N)N2C2OC(CO)C(O)C(O)C2O)NC(=O)C(C(O)C2CNC(=N)N2)NC(=O)C(Cc2ccc(OC3OC(CO)C(OC4OC5COC6(CC7CCC6(C)C7(C)C)OC5C(O)C4O)C(O)C3O)cc2)NC1=O (centres unmarked) [Example 214]

Response:
1: 32 µg/mL; 2: 2 µg/mL

###

Kindly supply the reported MIC Streptococcus pneumoniae (GC 1894) values for the records listed here.
Tested on: Streptococcus sp.
Experiment: in vitro antibacterial evaluation, MIC by broth dilution
Assay type: cell-based
Settings: broth dilution, inoculum 5×10^5 CFU/mL, 18 hours at 35° C.; strain GC 1894

Answered cases to consult:
CC(c1ccccc1)C1NC(=O)CNC(=O)C(CO)NC(=O)C(C(O)C2CNC(=N)N2C2OC(CO)C(O)C3OC(C)(C)OC32)NC(=O)C(C(O)C2CNC(=N)N2)NC(=O)C(Cc2ccc(OC3OC(CO)C(OC4OC(CO)C(O)C5OC(C)(C)OC45)C4OC(C)(C)OC34)cc2)NC1=O (stereo not shown) [Example 229a] :: >128 µg/mL
CC(C)CC(=O)OC1C(O)C(OC2C(CO)OC(Oc3ccc(CC4NC(=O)C(C(C)c5ccccc5)NC(=O)CNC(=O)C(CO)NC(=O)C(C(O)C5CNC(=N)N5C5OC(CO)C(O)C(O)C5O)NC(=O)C(C(O)C5CNC(=N)N5)NC4=O)cc3)C(O)C2O)OC2COC3(OC21)C1CC2CC(C1)CC3C2 (stereo not shown) [Example 218] :: <0.06 µg/mL
N=C1NCC(C(O)C2NC(=O)C(Cc3ccc(OC4OC(CO)C(OC5OC6COC(c7ccccc7)OC6C(O)C5O)C(O)C4O)cc3)NC(=O)C(CC3CCCCC3)NC(=O)CNC(=O)C(CO)NC(=O)C(C(O)C3CNC(=N)N3C3OC(CO)C(O)C(O)C3O)NC2=O)N1 (stereo not shown) [Example 199] :: <0.12 µg/mL

Query: Using known records, supply MIC Streptococcus pneumoniae (GC 1894) for COc1ccc(COCC2OC(OC3C(CO)OC(Oc4ccc(CC5NC(=O)C(C(C)c6ccccc6)NC(=O)CNC(=O)C(CO)NC(=O)C(C(O)C6CNC(=N)N6C6OC(CO)C(O)C(O)C6O)NC(=O)C(C(O)C6CNC(=N)N6)NC5=O)cc4)C(O)C3O)C(O)C(O)C2O)c2ccccc12 (stereo not shown) [Example 240]
Response: <0.12 µg/mL

###

System: Streptococcus sp.
Assay: in vitro antibacterial evaluation, MIC by broth dilution
Assay type: cell-based
Settings: broth dilution, inoculum 5×10^5 CFU/mL, 18 hours at 35° C.; strain GC 4564
Description: Methods for in vitro Antibacterial Evaluation (Table 1) […]
Kindly supply the reported MIC Streptococcus agalactiae (GC 4564) values for the records listed here.
Answers are plain numbers, in µg/mL.

Quick batch: MIC Streptococcus agalactiae (GC 4564) for everything below.
1. CC(c1ccccc1)C1NC(=O)CNC(=O)C(CO)NC(=O)C(C(O)C2CNC(=N)N2C2OC(CO)C(O)C(O)C2O)NC(=O)C(C(O)C2CNC(=N)N2)NC(=O)C(Cc2ccc(OC3OC(CO)C(OC4OC(COCC=Cc5ccccc5)C(O)C(O)C4O)C(O)C3O)cc2)NC1=O (stereo not shown) [Example 242]
2. CC(c1ccccc1)C1NC(=O)CNC(=O)C(CO)NC(=O)C(C(O)C2CNC(=N)N2C2OC(CO)C(O)C(O)C2O)NC(=O)C(C(O)C2CNC(=N)N2)NC(=O)C(Cc2ccc(OC3OC(CO)C(OC4OC5COC(c6ccc(-c7ccsc7)cc6)OC5C(O)C4O)C(O)C3O)cc2)NC1=O (stereo not shown) [Example 164]
3. COc1ccc2cc(COC3C(OC4C(CO)OC(Oc5ccc(CC6NC(=O)C(C(C)c7ccccc7)NC(=O)CNC(=O)C(CO)NC(=O)C(C(O)C7CNC(=N)N7C7OC(CO)C(O)C(O)C7O)NC(=O)C(C(O)C7CNC(=N)N7)NC6=O)cc5)C(O)C4O)OC(CO)C(O)C3O)ccc2c1 (stereo not shown) [Example 230c]

Response:
[2, 0.12, 32]

###

Tested on: Enterococcus sp.
Test: in vitro antibacterial evaluation, MIC by broth dilution
Type: cell-based
Details: Enterococcus faecalis (GC 4553); broth dilution, 18 hours at 35° C.
Numbered stars: 1 amine (or outer) side, 2 acyl side, 3 side chain; on linkers, the order of the positions; unused ones are H or OH. Square brackets hold non-standard residues; d marks the D form. Peptide text beside a SMILES is read from it. * marks the point of attachment. ξ: configuration not given here. X1 = N=C1NCC(C(O)C(N[*:1])C(=O)[*:2])N1C1OC(CO)C(O)C(O)C1O; ξEnduracididine(βξ-OH,4'ξ) = N=C1NCC(C(O)C(N)C(=O)O)N1; ξPhe(4-Cl,βξ-Me) = CC(c1ccc(Cl)cc1)C(N)C(=O)O; X2 = OCC1OC(OC2C(CO)OC(*)C(O)C2O)C(O)C(O)C1O
recorded_endpoint: MIC Enterococcus faecalis (GC 4553)

CC(C)CC(=O)OC1C(OC2C(CO)OC(Oc3ccc(CC4NC(=O)C(C(C)c5cccc(F)c5)NC(=O)CNC(=O)C(CO)NC(=O)C(C(O)C5CNC(=N)N5C5OC(CO)C(O)C(O)C5O)NC(=O)C(C(O)C5CNC(=N)N5)NC4=O)cc3)C(O)C2O)OC(CO)C(O)C1O (stereo not shown) [Example 264a] :: >64 µg/mL

Quick batch: MIC Enterococcus faecalis (GC 4553) for everything below.
1. CC(c1ccccc1)C1NC(=O)CNC(=O)C(CO)NC(=O)C(CC2CNC(=N)N2C2OC(CO)C(O)C(O)C2O)NC(=O)C(CC2CNC(=N)N2)NC(=O)C(Cc2ccc(OC3OC(CO)C(OC4OC(CO)C(O)C(O)C4O)C(O)C3O)cc2)NC1=O (stereo not shown) [Example 277a]
2. CC(c1ccc(Cl)cc1)C1NC(=O)CNC(=O)C(CO)NC(=O)C(C(O)C2CNC(=N)N2C2OC(CO)C(O)C(O)C2O)NC(=O)C(C(O)C2CNC(=N)N2)NC(=O)C(Cc2ccc(OC3OC(CO)C(OC4OC(CO)C(O)C(O)C4O)C(O)C3O)cc2)NC1=O (stereo not drawn) [Example 262a] (cyclo(G[ξPhe(4-Cl,βξ-Me)]Y(X2)[ξEnduracididine(βξ-OH,4'ξ)][X1]S); configuration not given here)

Response:
1. >128 µg/mL
2. >128 µg/mL

Quick batch: MIC Enterococcus faecalis (GC 4553) for everything below.
1. CC(c1ccccc1)C1NC(=O)CNC(=O)C(CO)NC(=O)C(CC2CN(Cc3ccccc3)C(=N)N2C2OC(CO)C(O)C(O)C2O)NC(=O)C(CC2CNC(=N)N2)NC(=O)C(Cc2ccc(OC3OC(CO)C(OC4OC5COC6(OC5C(O)C4O)C4CC5CC(C4)CC6C5)C(O)C3O)cc2)NC1=O (stereo not shown)
2. CC(c1ccccc1)C1NC(=O)CNC(=O)C(CO)NC(=O)C(C(O)C2CNC(=N)N2C2OC(CO)C(O)C(O)C2O)NC(=O)C(C(O)C2CNC(=N)N2)NC(=O)C(Cc2ccc(OC3OC(CO)C(OC4OC5COC(c6ccc(C(C)(C)C)cc6)OC5C(O)C4O)C(O)C3O)cc2)NC1=O (stereo not shown)
3. CC(c1ccccc1)C1NC(=O)CNC(=O)C(CO)NC(=O)C(C(O)C2CNC(=N)N2C2OC(CO)C(O)C(O)C2O)NC(=O)C(C(O)C2CNC(=N)N2)NC(=O)C(Cc2ccc(OC3OC(CO)C(OC4OC5COC(c6ccc7c(c6)OCO7)OC5C(O)C4O)C(O)C3O)cc2)NC1=O (stereo not shown)

Response:
1. 32 µg/mL
2. 0.5 to 1 µg/mL
3. 8 to 16 µg/mL

Quick batch: MIC Enterococcus faecalis (GC 4553) for everything below.
1. CC(c1ccccc1)C1NC(=O)CNC(=O)C(CO)NC(=O)C(C(O)C2CN(Cc3ccc(C(=O)O)cc3)C(=N)N2C2OC(CO)C(O)C(O)C2O)NC(=O)C(C(O)C2CNC(=N)N2)NC(=O)C(Cc2ccc(OC3OC(CO)C(OC4OC(CO)C(O)C(O)C4O)C(O)C3O)cc2)NC1=O (stereo not shown)
2. CC(c1ccccc1)C1NC(=O)CNC(=O)C(CO)NC(=O)C(C(O)C2CN(Cc3ccccc3)C(=N)N2C2OC(CO)C(O)C(O)C2O)NC(=O)C(C(O)C2CNC(=N)N2)NC(=O)C(Cc2ccc(OC3OC(CO)C(OC4OC(CO)C(O)C(O)C4O)C(O)C3O)cc2)NC1=O (stereo not shown)
3. CC(C1CCCCC1)C1NC(=O)CNC(=O)C(CO)NC(=O)C(C(O)C2CNC(=N)N2C2OC(CO)C(O)C(O)C2O)NC(=O)C(C(O)C2CNC(=N)N2)NC(=O)C(CC2CCC(OC3OC(CO)C(OC4OC(CO)C(O)C(O)C4O)C(O)C3O)CC2)NC1=O (stereo not shown) [Example 53a]
4. CCCC(CCC)C(=O)OCC1OC(OC2C(CO)OC(Oc3ccc(CC4NC(=O)C(C(C)c5ccccc5)NC(=O)CNC(=O)C(CO)NC(=O)C(C(O)C5CNC(=N)N5C5OC(CO)C(O)C(O)C5O)NC(=O)C(C(O)C5CNC(=N)N5)NC4=O)cc3)C(O)C2O)C(O)C(O)C1O (stereo not shown) [Example 99c]
5. COc1cccc(C2OC3C(OC4C(CO)OC(Oc5ccc(CC6NC(=O)C(C(C)c7ccccc7)NC(=O)CNC(=O)C(CO)NC(=O)C(C(O)C7CNC(=N)N7C7OC(CO)C(O)C(O)C7O)NC(=O)C(C(O)C7CNC(=N)N7)NC6=O)cc5)C(O)C4O)OC(CO)C(O)C3O2)c1 (single isomer, unassigned) [Example 137a]

Response:
[">128 µg/mL", ">128 µg/mL", ">128 µg/mL", "4 µg/mL", ">64 µg/mL"]

Quick batch: MIC Enterococcus faecalis (GC 4553) for everything below.
1. CCCCCCCC1OCC2OC(OC3C(CO)OC(Oc4ccc(CC5NC(=O)C(C(C)c6ccccc6)NC(=O)CNC(=O)C(CO)NC(=O)C(C(O)C6CNC(=N)N6C6OC(CO)C(O)C(O)C6O)NC(=O)C(C(O)C6CNC(=N)N6)NC5=O)cc4)C(O)C3O)C(O)C(O)C2O1 (stereo not shown)
2. CC(c1ccccc1)C1NC(=O)CNC(=O)C(CO)NC(=O)C(C(O)C2CN(Cc3ccc(-c4ccccc4)cc3)C(=N)N2C2OC(CO)C(O)C(O)C2O)NC(=O)C(C(O)C2CNC(=N)N2)NC(=O)C(Cc2ccc(OC3OC(CO)C(OC4OC(CO)C(O)C(O)C4O)C(O)C3O)cc2)NC1=O (stereo not shown) [Example 66a]

Response:
["2 µg/mL", ">128 µg/mL"]

Reference for the values: patent US6914045B2
